- EXPERIMENTAL PROTOCOL: Cytotoxicity against mouse J774.1 cells after 24 hrs by AlamarBlue based cytotoxicity assay
- Type: cell-based
- ASSAY CONTEXT: J774.1, 24 h
ATTRIBUTE MEASURED: IC50 (µM)
Numbers only, in µM.

Please state IC50 for every compound in the list that follows.
1. CCN(CC)CCCC(C)Nc1ccnc2cc(Cl)ccc12 (centres undefined) [CHLOROQUINE]
2. CC1(C)CCc2c(nc3ccc([N+](=O)[O-])cc3c2NCCCCCCNc2c3c(nc4ccc([N+](=O)[O-])cc24)CC(C)(C)CC3)C1
3. CC1CCc2c(nc3ccc([N+](=O)[O-])cc3c2NCCCCCCNc2c3c(nc4ccc([N+](=O)[O-])cc24)CC(C)CC3)C1 (centres undefined)
4. c1ccc2c(NCCCCCCCCCCNc3c4c(nc5ccccc35)CCCC4)c3c(nc2c1)CCCC3
5. Clc1ccc2c(NCCCCCCNc3c4c(nc5cc(Cl)ccc35)CCCC4)c3c(nc2c1)CCCC3
6. CCCC1CCc2nc3ccccc3c(N)c2C1 (centres undefined)

output:
[18.4, 7.9, 25, 1.8, 1.8, 43]

Please state IC50 for every compound in the list that follows.
1. c1ccc2c(NCCCCCCCNc3c4c(nc5ccccc35)CCCC4)c3c(nc2c1)CCCC3
2. c1ccc2c(NCCCCCNc3c4c(nc5ccccc35)CCCC4)c3c(nc2c1)CCCC3

output:
1.9
1.8

----------
What pIC50 was measured for each of the following?
- System: Plasmodium falciparum
- EXPERIMENTAL PROTOCOL: Antimalarial activity against chloroquine-resistant Plasmodium falciparum Dd2 assessed as parasite viability after 72 hrs by malstat assay
- Format: functional, organism-based
- ASSAY CONTEXT: Dd2, 72 h
Answers are plain numbers, as −log10 of the molar value.

>>> df
                                   compound            measured_on  attribute_measured  recorded_value
0  c1ccc2c(NCCCCCNc3c4c(nc5ccccc35)CCCC4)c3c(nc2c1)CCCC3  Plasmodium falciparum               pIC50            6.26
1  COc1ccc2nc3c(c(NCCCCCCCCCNc4c5c(nc6ccc(OC)cc46)CCCC5)c2c1)CCCC3  Plasmodium falciparum               pIC50            6.80
2  c1ccc2c(NCCCCCCCNc3c4c(nc5ccccc35)CCCC4)c3c(nc2c1)CCCC3  Plasmodium falciparum               pIC50            6.66
3  CCOC1CCc2nc3cc(Cl)ccc3c(NCCCCCCCCCNc3c4c(nc5cc(Cl)ccc35)CCC(OCC)C4)c2C1 (stereo unspecified)  Plasmodium falciparum               pIC50            6.80
4  c1ccc2c(NCCCCCCCCNc3c4c(nc5ccccc35)CCCC4)c3c(nc2c1)CCCC3  Plasmodium falciparum               pIC50            6.52

Consider the additional compound presented here.
input: Given c1ccc2c(NCCCCCCCCCCNc3c4c(nc5ccccc35)CCCC4)c3c(nc2c1)CCCC3 , respond with its pIC50.
output: 6.85

----------
- EXPERIMENTAL PROTOCOL: Reversible inhibition of recombinant Plasmodium falciparum falcipain 2 assessed as hydrolysis of Cbz-Phe-Arg-AMC measured after 10 mins by spectrofluorometric method
What IC50 was measured for each of the following?
Numbers only, in µM.

Some solved cases for reference:
>>> print(df.to_string())
                                   compound  attribute_measured  recorded_value
0  COc1ccc2nc3c(c(NCCCCCCCCCNc4c5c(nc6ccc(OC)cc46)CCCC5)c2c1)CCCC3                IC50            14.9
1  c1ccc2c(NCCCCCCCCNc3c4c(nc5ccccc35)CCCC4)c3c(nc2c1)CCCC3                IC50            17.1
2  CC1CCc2c(nc3ccc([N+](=O)[O-])cc3c2NCCCCCCNc2c3c(nc4ccc([N+](=O)[O-])cc24)CC(C)CC3)C1 (centres undefined)                IC50             5.2

input: Given Clc1ccc2c(NCCCCCCNc3c4c(nc5cc(Cl)ccc35)CCCC4)c3c(nc2c1)CCCC3 , respond with its IC50.
output: 17.3
